Biological target: HCV polymerase (Hepatitis C virus genotype 1b, UniProt Q9WMX2)
pIC50: −log10 of the molar value.
Decision: pIC50 compared against 8; not below it gives Met, below it gives Not met.

Structure String	Group
C[C@@H]1CC[C@H](C)N1c1ccc(S(=O)(=O)N2CC(=O)N(c3cc(-c4ccccc4)sc3C(=O)O)[C@H](C3CCCCC3)C2)cn1	Met

Enquiry: Confirm if pIC50 reported for the compound CC(C)c1ccc(S(=O)(=O)N2CC(=O)N(c3cc(C#CC(C)(C)C)sc3C(=O)O)[C@H](C3CCCCC3)C2)cc1 is 8 or above.
Return: Not met

---

Kindly supply the reported pIC50 values for the records listed here.
Biological target: HCV polymerase (Hepatitis C virus genotype 1b)
Construct: (His)6 (C); made in house; host or cells: XL-1 cells (E. coli, by own knowledge)
Test: Polymerase assay of Biological Example 1 (IC50 values of Table 3)
Format: biochemical
Details: IC50 values of Table 3, polymerase assay of Biological Example 1; read-out: NS5B-enzyme3
Give bare numbers, as −log10 of the molar value.

Observe how each entry below is paired with its result.
Compound	Quantity Kind	Observed Measurement
O=C(O)c1sc(-c2ccccc2)cc1N1C(=O)CN(S(=O)(=O)c2ccc(-c3ccc(F)cc3F)nc2)C[C@H]1C1CCCCC1 [Compound 205]	pIC50	8.40
CC(C)(C)OC(=O)N[C@H]1CCCN(c2ccc(S(=O)(=O)N3CC(=O)N(c4cc(-c5ccccc5)sc4C(=O)O)[C@H](C4CCCCC4)C3)cn2)C1 [Compound 159]	pIC50	8.52
Cn1nccc1S(=O)(=O)N1CC(=O)N(c2cc(C#CC(C)(C)C)sc2C(=O)O)[C@H](C2CCCCC2)C1 [Compound 254]	pIC50	7.82
O=C(O)c1sc(-c2ccccc2)cc1N1C(=O)CN(S(=O)(=O)c2ccc(N3CC[C@H](O)C3)nc2)CC1C1CCCCC1 (some centres unmarked) [Compound 124]	pIC50	8.40
N#Cc1ccc(-c2cc(N3C(=O)CCCC3C3CCCCC3)c(C(=O)O)s2)cc1 (centres unmarked) [Compound 129]	pIC50	7.02

Please go through the list and note pIC50 for each compound.
1. C[C@@H]1CCCN1c1ncc(S(=O)(=O)N2CC(=O)N(c3cc(-c4ccccc4)sc3C(=O)O)[C@H](C3CCCCC3)C2)cc1Cl [Compound 170]
2. C[C@H]1CN(c2ccc(S(=O)(=O)N3CC(=O)N(c4cc(-c5ccccc5)sc4C(=O)O)[C@H](C4CCCCC4)C3)cn2)CCN1C(=O)OC(C)(C)C [Compound 162]
3. O=C(O)c1sc(-c2ccccc2)cc1N1C(=O)CN(S(=O)(=O)c2ccc(-n3cccn3)cc2)CC1C1CCCCC1 (centres unmarked) [Compound 101]

Return:
[8.40, 8.70, 7.96]

---

Molecular target: HCV polymerase (Hepatitis C virus genotype 1b, UniProt Q9WMX2)
Quantity Kind: pIC50
Numbers only, as −log10 of the molar value.

Compound	Quantity Kind	Observed Measurement
Cc1cc(S(=O)(=O)N2CC(=O)N(c3cc(-c4ccccc4)sc3C(=O)O)[C@H](C3CCCCC3)C2)cnc1N1CCC[C@H]1C [Compound 173]	pIC50	9.00

Please go through the list and note pIC50 for each compound.
1. CC(C)(C)C#Cc1cc(N2C(=O)C(CO)OC[C@H]2C2CCCCC2)c(C(=O)O)s1 (some centres unmarked) [Compound 329]
2. COC[C@@H]1CCCN1c1ccc(S(=O)(=O)N2CC(=O)N(c3cc(-c4ccc(F)cc4)sc3C(=O)O)[C@H](C3CCCCC3)C2)cn1 [Compound 279]
3. CC(C)(C)C#Cc1cc(N2C(=O)COC[C@H]2C2CCCCC2)c(C(=O)O)s1 [Compound 236]
4. CC(C)(C)C#Cc1cc(N2C(=O)OC[C@H]2C2CCCCC2)c(C(=O)O)s1 [Compound 181]
5. CC(C)(C)C#Cc1cc(N2C(=O)C(CC(=O)N3CCOCC3)OC[C@H]2C2CCCCC2)c(C(=O)O)s1 (some centres unmarked) [Compound 294]
6. COc1ccc(S(=O)(=O)N2CC(=O)N(c3cc(-c4ccccc4)sc3C(=O)O)C(C3CCCCC3)C2)cc1C(=O)O (centres unmarked) [Compound 29]

Return:
8.30
8.96
8.52
8.52
8.15
9.00

Please go through the list and note pIC50 for each compound.
1. Cc1ccc(-c2cc(N3C(=O)CN(S(=O)(=O)c4cn(C)c(C)n4)C[C@H]3C3CCCCC3)c(C(=O)O)s2)cc1 [Compound 298]
2. CCC1CCCN1c1ccc(S(=O)(=O)N2CC(=O)N(c3cc(-c4ccccc4)sc3C(=O)O)[C@H](C3CCCCC3)C2)cn1 (some centres unmarked) [Compound 154]
3. O=C(O)c1sc(-c2ccc(F)cc2)cc1N1C(=O)CCCC1C1CCCCC1 (centres unmarked) [Compound 70]
4. CC(C)(C)C#Cc1cc(N2C(=O)[C@@H](CC(O)CO)OC[C@H]2C2CCCCC2)c(C(=O)O)s1 (some centres unmarked) [Compound 10]

Return:
1. 9.00
2. 8.52
3. 7.17
4. 8.52
